# Test system: ACHN renal
# procedure_text: NCI tumour cell line growth inhibition, 48 h
assay_endpoint: TGI (µM)
Number in µM, nothing else.

Hello, I am looking for reported TGI with ACHN renal for CCO/C=N/C1=C(C#N)C(c2ccc(OC)c(OC)c2)c2c(-c3ccccc3)nn(-c3ccccc3)c2O1 (stereo not given) . Could you help?
28.3

Kindly state the measured TGI obtained for Cc1ccc(SCN2CCCCC2)cc1 (tested in a mixture with another compound) with ACHN renal.
28.7

Observed TGI on ACHN renal for `COc1ccc(/C(C)=C(\c2ccc(Cl)cc2)c2ccc(OCCN3CCCCC3)cc2)cc1F` , please.
14.4

Entry `CN(C)CCCNc1ccc2nnn3c4ccc([N+](=O)[O-])cc4c(=O)c1c23` , system ACHN renal: what TGI was measured?
5.92

----------
# Test system: SK-MEL-28 melanoma
# procedure_text: NCI tumour cell line growth inhibition, 48 h
assay_endpoint: GI50

# get_value(readout='GI50', item= `C=CC(=O)N1CC[C@@H](Oc2nc(Nc3ccc(N4CCC(N5CCN(C)CC5)CC4)cc3)c(C(N)=O)nc2CC)C1` )
> 100 µM

// query GI50 value for entry `COc1ccc(/C=C2\CN(Cc3cn(CCCNc4ccnc5cc(Cl)ccc45)nn3)C/C(=C\c3ccc(OC)cc3)C2=O)cc1`
14 µM

Any idea what its GI50 is? The compound is `Cc1nn(-c2ccccc2)c2ncc3c(c12)C(=O)N(Cc1ccccc1)C3=O`
> 100 µM

Would you mind telling me what GI50 value was observed for `N#Cc1ccccc1C#C/C=C\C#Cc1cnccn1` ?
35.2 µM

I am curious: what GI50 value has been reported for CCCCCCCCCCCCOC1C(C(COC2OC(C(O)CO)C3OC(C)(C)OC23)OC(=O)Nc2ccc([N+](=O)[O-])cc2)OC2OC(C)(C)OC21 (stereo unspecified) ?
9.84 µM

Could you tell me which GI50 is on file for `Nc1cc(N)c2nc(-c3ccccc3)c(Sc3ccc(F)cc3)nc2c1` ?
23.4 µM

Name the recorded GI50 for `Cc1cccc(NC(=O)c2sc3nc4c(cc3c2N)CCC4)c1C` .
0.803 µM

Given Cc1ccc(S(=O)(=O)NC(CCCCN)C(=O)CCl)cc1 (stereo unspecified) , state its recorded GI50.
> 100 µM

// query GI50 value for entry `Cc1nc2cc(NC(=O)CN3CCN(CCN4C(=O)c5cccc6cccc(c56)C4=O)CC3)ccc2s1`
11.1 µM

I am curious: what GI50 value has been reported for `CCCCc1ccc(C(N)=O)nc1` ?
> 100 µM

Need GI50 of `COC(=O)c1cc2c([nH]c3ccccc32)c(-c2nc3cc(N(S(=O)(=O)c4ccc(C)cc4)S(=O)(=O)c4ccc(C)cc4)c(OC)cc3cc2CO)n1` , thanks.
> 100 µM

----------
# Test system: NCI/ADR-RES ovarian
# procedure_text: NCI tumour cell line growth inhibition, 48 h
I'd appreciate it if you could supply TGI values for the items below.
Numbers only; they are read as µM.

Dear colleague, I am looking for the recorded TGI of the following compound: `COc1ccc(/C=C2\CN(Cc3cn(CCCNc4ccnc5cc(Cl)ccc45)nn3)C/C(=C\c3ccc(OC)cc3)C2=O)cc1`
14.5

# query: TGI of entry `CNCc1ccc(C)c(NC(=O)c2ccc(Nc3nc(-c4ccccc4)c4ccccc4n3)cc2)c1`
5.25

Request the reported TGI associated with `CN1CCN(Cc2ccc(NC(=O)c3cncc(C#Cc4c(N)ncc5ccc(F)cc45)c3)cc2C(F)(F)F)CC1`
5.83

Need TGI, item `Clc1ccc(CCN2CCN(CCCc3ccccc3)CC2)cc1Cl`
28.5

Form field: reported TGI of `COc1cc(C=Nc2ccc(Oc3ccc(Cl)cc3)c(Cl)c2)cc(OC)c1OC`
48.8

What value of TGI has been reported for the following compound? `COc1c(-c2ccc3c(c2)OCO3)oc2cc3c(c(OC)c2c1=O)OCO3`
85.5

Data request, read-out TGI, for CCN(CC)CCC(CNc1c2ccc(Cl)cc2nc2ccc(OC)cc12)c1ccccc1 (stereo not drawn)
5.12

Which measured TGI value corresponds to `CN(C)c1ccc(/C=C/C(=O)c2ccc(Nc3nc(Nc4ccc(F)cc4)nc(Nc4ccc(Cl)cc4)n3)cc2)cc1` ?
33.4
